Each recorded value in this set is attributed to PubChem BioAssay (NCI).

System: MOLT-4 leukemia
TEST: NCI tumour cell line growth inhibition, 48 h
MEASUREMENT KIND: TGI

MOLECULE	RECORDED RESULT
OCc1ccc(-c2nc(-c3ccc4c(c3)OCO4)c(-c3ccccn3)[nH]2)cc1	> 25 µM
CCOC(=O)C(=[N+]=[N-])C(=O)CSC#N	> 100 µM
COc1ccccc1NC1Oc2cc3c(cc2C(c2cc(OC)c(OC)c(OC)c2)C1C)OCO3 (centres undefined)	33 µM

Provide TGI values for the following items, in order.
1. CCn1nc(C2CCN(C(=O)CCO)CC2)nc1-c1cnc(N)c(-c2nnc(C(C)(C)C)o2)n1
2. C=CC12CCCCC1CC(C(=O)OC)=C(O)C2 (centres undefined)

Solution:
1. 39.2 µM
2. > 100 µM

====

Kindly supply the reported GI50 values for the records listed here.
System: SW-620 colon
TEST: NCI tumour cell line growth inhibition, 48 h

Reference set, count: 3
MOLECULE	TESTED SYSTEM	GI50
CC(C)(C)c1cc(C[P+](c2ccccc2)(c2ccccc2)c2ccccc2)cc(C(C)(C)C)c1O	SW-620 colon	0.528 µM
COc1cccc2c1C(=O)c1c(O)c3c(c(O)c1C2=O)C[C@](O)(C(=O)CO)C[C@H]3O[C@@H]1C[C@@H](NC(=O)CCCN(C)C2(c3ccc(F)cc3)CC3CCC2C3)[C@H](O)[C@@H](C)O1 (some centres undefined)	SW-620 colon	0.641 µM
CCOC(=O)Cc1csc(NC(=O)C(OC(=O)c2ccc(Cl)cc2)c2ccccc2)n1 (centres undefined)	SW-620 colon	48.4 µM

// moving on: another record for GI50
Problem: Returns the measured GI50 for the input molecule. Input: `O=c1[nH]c(-c2ccc(Cl)c(Cl)c2)cn1-c1ccc(Cl)cc1`
Solution: 33.1 µM

====

Tested on: SNB-75 CNS
TEST: NCI tumour cell line growth inhibition, 48 h
Kindly supply the reported TGI values for the records listed here.
Give bare numbers, in µM.

Answered examples (3):
MOLECULE	UNIT OF MEASURE	RECORDED RESULT
O=c1[nH]c2nc3ccccc3c(=O)n2/c1=C/c1ccccc1	µM	99.4
Cc1cc(C)c2c(=O)n(CC(O)CN(Cc3ccccc3)CC(O)Cn3sc4nc(C)cc(C)c4c3=O)sc2n1 (stereo not given)	µM	28.9
CCCN(CCC)c1ccc(/C=N/NC(=O)c2cccnc2)c(C)c1	µM	36.1

Problem: Would you kindly share the measured TGI for `c1ccc(/C(=N\Nc2nc3ccccc3[nH]2)c2ccccn2)cc1` ?
Solution: 3.85

====

Tested on: OVCAR-3 ovarian
TEST: NCI tumour cell line growth inhibition, 48 h
MEASUREMENT KIND: TGI (µM)
Give bare numbers, in µM.

COMPOUND	TGI (µM)
N#Cc1c(N)nc2c(c1-c1ccc(Cl)cc1)COc1ccc(F)cc1-2	50.2
Nc1nc(Sc2ccc([N+](=O)[O-])c3nonc23)c2ncn(C3OC(CO)C(O)C3O)c2n1 (stereo not given)	24.6

Hi, could you look up TGI for each item in my list?
1. COC(=O)c1c2c(c(C)[n+]([O-])c1C)C(=O)C(NCc1ccccc1)=CC2=O
2. COC(=O)/C=C1\CCC2[C@@H](C(=O)CC3[C@]2(C)CCC[C@@]3(C)C(=O)OC)C1C (stereo not given in full)

Solution:
[3.67, 89]
